Source of measurements: the supplement of paper PMC7595190

- Tested on: MV4-11
- Experiment notes: CellTox Green cytotoxicity fluorescence relative to DMSO vehicle (fold of vehicle RFU); higher = more cell death (loss of membrane integrity), active = 2 or more
- Conditions: 0.1 µM; 24 h
Consider the following molecules; for each one, report its CellTox Green cytotoxicity fluorescence.
Response field accepts a number only; no unit should be typed.

Give me measured CellTox Green cytotoxicity fluorescence, please, for this molecule: `CN(C)CCCCC(=O)Nc1ccc(NC(=S)NC(=O)c2ccc(C(C)(C)C)cc2)cc1` 0.986

Give me measured CellTox Green cytotoxicity fluorescence, please, for this molecule: `CCO[C@@H]1OC(=O)C[C@@H]1NC(=O)[C@@H]1CCCN1C(=O)[C@@H](NC(=O)c1ccc(N)c(Cl)c1)C(C)(C)C` 0.995

Give me measured CellTox Green cytotoxicity fluorescence, please, for this molecule: `COc1nc(OCc2cccc(-c3ccccc3)c2C)ccc1CNCCNC(C)=O` 0.984

---

- System: CMK
- Experiment notes: CellTox Green cytotoxicity fluorescence relative to DMSO vehicle (fold of vehicle RFU); higher = more cell death (loss of membrane integrity), active = 2 or more
- Conditions: 1 µM; 48 h
Counter-ions that a name gives are not always drawn.
Observed property: CellTox Green cytotoxicity fluorescence
Response field accepts a number only; no unit should be typed.

Give me measured CellTox Green cytotoxicity fluorescence, please, for this molecule: COc1c/c(=C2\C=c3ccccc3=N2)[nH]/c1=C\c1[nH]c(C)cc1C [Obatoclax Mesylate] 1

Give me measured CellTox Green cytotoxicity fluorescence, please, for this molecule: COc1nc(-c2ccc3c(c2)OCO3)n(-c2ccc(NC(=O)CSc3ccccc3)cc2)n1 [SecinH3] 1.01

Give me measured CellTox Green cytotoxicity fluorescence, please, for this molecule: `Nc1ccccc1NC(=O)c1cnccn1` 1.02

Give me measured CellTox Green cytotoxicity fluorescence, please, for this molecule: `CN1CCN(CCCNc2ncc(Cl)c(-c3cc4c(C(=O)NC5CC5)cccc4s3)n2)CC1` 0.993

---

- Test system: Kasumi-1
- Experiment notes: CellTox Green cytotoxicity fluorescence relative to DMSO vehicle (fold of vehicle RFU); higher = more cell death (loss of membrane integrity), active = 2 or more
- Conditions: 1 µM; 48 h
Consider the following compounds; for each one, report its CellTox Green cytotoxicity fluorescence.
Response field accepts a number only; no unit should be typed.

Give me measured CellTox Green cytotoxicity fluorescence, please, for this compound: `COc1ccc(CCNCc2ccc(OCc3ccc(Cl)nc3)c(OC)c2)cc1OC` 0.987

Give me measured CellTox Green cytotoxicity fluorescence, please, for this compound: `COC(=O)[C@H](CCSC)NC(=O)c1ccc(NC[C@@H](N)CS)cc1-c1ccccc1` 0.973

Give me measured CellTox Green cytotoxicity fluorescence, please, for this compound: `Fc1ccc(CNc2ncnc3ccc(F)cc23)cc1` 1.01

Give me measured CellTox Green cytotoxicity fluorescence, please, for this compound: `O=C1NC(=NCc2cccs2)S/C1=C\c1ccc2ncccc2c1` 1.01

Give me measured CellTox Green cytotoxicity fluorescence, please, for this compound: `CCC(CC)n1ccc2c(C(=O)NCc3c(C)cc(C)[nH]c3=O)cc(C#N)cc21` 0.971

Give me measured CellTox Green cytotoxicity fluorescence, please, for this compound: `Nc1ccccc1NC(=O)c1cnccn1` 1

Give me measured CellTox Green cytotoxicity fluorescence, please, for this compound: `Nc1nc(F)nc2c1ncn2[C@@H]1O[C@H](CO)[C@@H](O)[C@@H]1O` 1.01

Give me measured CellTox Green cytotoxicity fluorescence, please, for this compound: `COc1nc(-c2ccc3c(c2)OCO3)n(-c2ccc(NC(=O)CSc3ccccc3)cc2)n1` 0.989

Give me measured CellTox Green cytotoxicity fluorescence, please, for this compound: Nc1cccc2c1C(=O)N(C1CCC(=O)NC1=O)C2=O (configuration not stated) [Pomalidomide] 1.02

Give me measured CellTox Green cytotoxicity fluorescence, please, for this compound: `CCCC[C@@H](C=O)NC(=O)[C@H](CC(C)C)NC(=O)OCc1ccccc1` 1.02

Give me measured CellTox Green cytotoxicity fluorescence, please, for this compound: `CN(C)CCCCC(=O)Nc1ccc(NC(=S)NC(=O)c2ccc(C(C)(C)C)cc2)cc1` 1

Give me measured CellTox Green cytotoxicity fluorescence, please, for this compound: `COc1nc(OCc2cccc(-c3ccccc3)c2C)ccc1CNCCNC(C)=O` 1
